system: Human immunodeficiency virus 1; test: Antiviral activity against Human immunodeficiency virus 1 NL4-3 harboring reverse transcriptase K101E mutant infected in human TZM-bl cells assessed as reduction in relative luminescence units after 48 hrs by luciferase reporter gene assay; type: functional, organism-based; conditions: Human immunodeficiency virus 1, NL4-3, TZM-bl
pEC50: −log10 of the molar value.
measurement_label: pEC50

[N-]=[N+]=N[C@]1(CO)O[C@@H](n2ccc(N)nc2=O)[C@@H](F)[C@@H]1O | 9.82

====

system: Human immunodeficiency virus 1; assay: Antiviral activity against vesicular stomatitis virus G-pseudotyped Human immunodeficiency virus 1 NL4-3 infected in human MT2 cells assessed as inhibition of viral replication after 48 hrs by luciferase activity reporter gene assay; assay type: functional, organism-based; conditions: Human immunodeficiency virus 1, NL4-3, MT2, 48 h
pEC50: −log10 of the molar value.
measurement_label: pEC50

Cc1cn([C@H]2C[C@H](N=[N+]=[N-])[C@@H](CO)O2)c(=O)[nH]c1=O | 7.33
